Target: UniProtKB Q13822
pIC50: −log10 of the molar value.
We use 7 as the dividing line for pIC50: on or above the line is rule met, below is rule not met.

Decide: is the reported value of pIC50 for O=C(/C=C/c1ccc(Cl)cc1Cl)N1CC[C@@H]2CN(C(=O)c3ccc4[nH]nnc4c3)C[C@@H]2CC1 equal to or greater than 7?
rule met

Decide: is the reported value of pIC50 for O=C(COc1ccccc1OC(F)(F)F)N1CC[C@@H]2CN(C(=O)c3ccc4[nH]nnc4c3)C[C@@H]2CC1 equal to or greater than 7?
rule met

Decide: is the reported value of pIC50 for O=C(/C=C/c1ccc(OC(F)(F)F)cc1)N1CC[C@@H]2CN(C(=O)N3CCc4[nH]ncc4C3)C[C@@H]2CC1 equal to or greater than 7?
rule not met

Decide: is the reported value of pIC50 for O=C(/C=C/c1ccc(OC(F)(F)F)cc1F)N1CC[C@@H]2CN(C(=O)c3ccc4[nH]nnc4c3)C[C@@H]2CC1 equal to or greater than 7?
rule met

Decide: is the reported value of pIC50 for O=C(c1ccc2ccccc2c1)N1C[C@@H]2CN(C(=O)c3ccc4[nH]nnc4c3)C[C@H]2C1 equal to or greater than 7?
rule not met

====

These records show pIC50 for ATX (human His-tagged) (Homo sapiens (Human), UniProt Q13822).
Give bare numbers, as −log10 of the molar value.

Recorded results for 5 compounds are shown here.
# compound, pIC50
data = [
    ("O=C(OCc1cc(Cl)cc(Cl)c1)N1C[C@H]2CN(C(=O)c3ccc4[nH]nnc4c3)C[C@@H]2C1 [Example 4.02]", 7.96),
    ("O=C(/C=C/c1ccc(OC(F)(F)F)cc1)N1CC[C@@H]2CN(C(=O)c3ccc4nonc4c3)C[C@@H]2CC1 [Example 1.17]", 6.19),
    ("COc1cc(OC(F)(F)F)ccc1COC(=O)N1CC[C@@H]2CN(C(=O)c3ccc4[nH]nnc4c3)C[C@H]2C1 (relative stereo) [Example 1.33]", 7.68),
    ("COc1cc(Cl)cc(COC(=O)N2C[C@@H]3CN(C(=O)c4ccc5[nH]nnc5c4)C[C@@H]3C2)c1 [Example 4.30]", 7.30),
    ("N#Cc1cc(Cl)cc(/C=C/C(=O)N2C[C@@H]3CN(C(=O)c4ccc5[nH]nnc5c4)C[C@H]3C2)c1 [Example 15.50]", 8.22),
]

// switching to the query compound
CS(=O)(=O)c1cc(COC(=O)N2C[C@@H]3CN(C(=O)c4ccc5[nH]nnc5c4)C[C@@H]3C2)cc(C(F)(F)F)c1 [Example 4.07] has a reported pIC50 of 7.80

====

These records show log10 IC50 for ATX (human His-tagged) (Homo sapiens (Human)).
All values: base-10 log of IC50 in nM.

Recorded results for 5 compounds are shown here.
# compound, observed result
measured = [
    ("CS(=O)(=O)c1cc(Cl)cc(/C=C/C(=O)N2C[C@@H]3CN(C(=O)c4ccc5[nH]nnc5c4)C[C@H]3C2)c1 [Example 15.46]", 1.26),
    ("N#Cc1cc(OC(F)(F)F)ccc1OCC(=O)N1C[C@@H]2CN(C(=O)c3ccc4[nH]nnc4c3)C[C@H]2C1 [Example 15.96]", 1.87),
    ("O=C(/C=C/c1cc(F)cc(C(F)(F)F)c1)N1C[C@@H]2CN(C(=O)c3ccc4[nH]nnc4c3)C[C@@H]2C1 [Example 15.02]", 1.98),
    ("O=C(CCc1ccccc1)N1C[C@@H]2CN(C(=O)c3ccc4[nH]nnc4c3)C[C@H]2C1 [Example 15.57]", 2.69),
    ("O=C1N[C@@H]2CCN(C(=O)N3C[C@H]4CN(C(=O)CCc5ccc(OC(F)(F)F)cc5)C[C@@H]4C3)C[C@H]2O1 [Example 15.55]", 2.68),
]

Batch request: log10 IC50 per item, same order as input.
1. O=C(/C=C/c1cccc(OC(F)(F)F)c1)N1C[C@H]2CCN(C(=O)c3ccc4[nH]nnc4c3)CC[C@H]2C1 [Example 15.20]
2. O=C(/C=C/c1ccc(OC(F)F)cc1)N1CC[C@@H]2CN(C(=O)c3ccc4[nH]nnc4c3)C[C@@H]2CC1 [Example 15.21]
3. O=C(/C=C/c1ccc(OC(F)(F)F)cc1)N1CC[C@@H]2CN(C(=O)C3CCc4[nH]nnc4C3)C[C@@H]2CC1 (stereo partly shown) [Example 1]
4. O=C(/C=C/c1ccc(OC(F)(F)F)cc1)N1C[C@@H]2CN(C(=O)C3CCc4[nH]nnc4C3)C[C@@H]2C1 (stereo partly shown) [Example 15.43]
5. O=C(COc1cccc(OC(F)(F)F)c1)N1C[C@@H]2CN(C(=O)c3ccc4[nH]nnc4c3)C[C@@H]2C1 [Example 15.71]
6. COc1cc(C(=O)N2C[C@H]3CN(C(=O)c4ccc5[nH]nnc5c4)C[C@@H]3C2)cc2ccccc12 [Example 19.15]

[1.69, 0.70, 0.90, 2.11, 3.13, 1.30]

Batch request: log10 IC50 per item, same order as input.
1. O=C(/C=C/c1ccc(OC(F)(F)F)cc1F)N1C[C@@H]2CN(C(=O)c3ccc4[nH]nnc4c3)C[C@H]2C1 [Example 15.40]
2. O=C(c1ccc2[nH]nnc2c1)N1C[C@H]2CN(C(=O)C3CCN(c4ccc(Cl)cc4)CC3)C[C@@H]2C1 [Example 19.23]

1. 0.70
2. 1.40

====

These records show log10(IC50) for ATX (human His-tagged) (Homo sapiens (Human), UniProt Q13822).
All values: base-10 log of IC50 in nM.

# molecule, target system, log10(IC50)
measured = [
    ("O=C(OCc1ccc(OC(F)(F)F)cc1)N1C[C@@H]2CN(C(=O)c3ccc4[nH]nnc4c3Cl)C[C@H]2C1", "ATX (human His-tagged) (Homo sapiens (Human), UniProt Q13822)", 1.15),
    ("N#Cc1ccc(/C=C/C(=O)N2C[C@@H]3CN(C(=O)c4ccc5[nH]nnc5c4)C[C@H]3C2)c(F)c1", "ATX (human His-tagged) (Homo sapiens (Human), UniProt Q13822)", 1.49),
]

Batch request: log10(IC50) per item, same order as input.
1. O=C(CCc1ccc(OCC(F)(F)F)cc1F)N1CC[C@@H]2CN(C(=O)c3ccc4[nH]nnc4c3)C[C@@H]2CC1
2. O=C(/C=C/c1ccc(OC(F)(F)F)cc1)N1CC[C@@H]2CN(C(=O)N3CCc4[nH]c(=O)ccc4C3)C[C@@H]2CC1
3. Cc1cc(OCC(=O)N2C[C@@H]3CN(C(=O)c4ccc5[nH]nnc5c4)C[C@@H]3C2)c(C(C)C)cc1Cl
4. CCOc1cc(C(=O)N2C[C@@H]3CN(C(=O)c4ccc5[nH]nnc5c4)C[C@H]3C2)nc2ccccc12
5. O=C(CCc1ccc(OC(F)(F)F)cc1)N1C[C@@H]2CN(C(=O)c3ccc4[nH]nnc4c3F)C[C@H]2C1
6. O=C(OCc1ccc(C(F)(F)F)cc1)N1C[C@@H]2CN(C(=O)[C@@H]3CCc4[nH]nnc4C3)C[C@H]2C1
7. O=C(/C=C/c1cc(Cl)cc(Cl)c1)N1CC[C@@H]2CN(C(=O)c3ccc4[nH]nnc4c3)C[C@H]2C1 (relative stereo)
8. O=C(c1ccc2[nH]nnc2c1)N1C[C@@H]2CN(C(=O)c3cc4ccc(Cl)cc4[nH]3)C[C@@H]2C1

[0.85, 2.28, 1.15, 1.18, 0.78, 0.95, 1.76, 3.31]

====

These records show pIC50 for ATX (human His-tagged) (Homo sapiens (Human)).
Numbers only, as −log10 of the molar value.

Recorded results for 2 compounds are shown here.
# compound, target system, pIC50
measured = [
    ("O=C(OCc1cc(Cl)cc(Cl)c1)N1C[C@H]2CCN(C(=O)c3ccc4[nH]nnc4c3)C[C@@H]2C1 (relative stereo)", "ATX (human His-tagged) (Homo sapiens (Human))", 8.40),
    ("O=C(/C=C/c1cc(Cl)cc(Cl)c1)N1C[C@H]2CCN(C(=O)c3ccc4[nH]nnc4c3)C[C@@H]2C1", "ATX (human His-tagged) (Homo sapiens (Human))", 7.89),
]

Batch request: pIC50 per item, same order as input.
1. N#Cc1cccc(/C=C/C(=O)N2CC[C@@H]3CN(C(=O)c4ccc5[nH]nnc5c4)C[C@@H]3CC2)c1
2. O=C(OCc1cc(Cl)cc(OC(F)(F)F)c1)N1C[C@@H]2CN(C(=O)c3ccc4[nH]nnc4c3)C[C@@H]2C1
3. O=C(OCc1cc(Cl)cc(Cl)c1)N1C[C@@H]2CN(C(=O)c3ccc4[nH]cnc4c3)C[C@@H]2C1
4. O=C(COc1ccccc1C1CCCO1)N1C[C@@H]2CN(C(=O)c3ccc4[nH]nnc4c3)C[C@H]2C1 (stereo partly shown)
5. O=C(CCc1ccc(C(F)(F)F)cc1)N1C[C@@H]2CN(C(=O)c3ccc4[nH]nnc4c3)C[C@H]2C1
6. O=C(c1ccc2[nH]nnc2c1)N1C[C@@H]2CN(C(=O)c3cc4cc(Cl)ccc4[nH]3)C[C@@H]2C1
7. O=C(CCc1ccc(C(F)(F)F)cn1)N1C[C@@H]2CN(C(=O)c3ccc4[nH]nnc4c3)C[C@H]2C1
8. O=C(OCC1CCCCC1)N1C[C@@H]2CN(C(=O)c3ccc4[nH]nnc4c3)C[C@@H]2C1

1: 7.30; 2: 8.40; 3: 6.30; 4: 6.56; 5: 7.96; 6: 5.79; 7: 7.24; 8: 5.80

Batch request: pIC50 per item, same order as input.
1. O=C(c1ccc2[nH]nnc2c1)N1C[C@H]2CN(C(=O)c3cc(OCC(F)(F)F)c4ccccc4n3)C[C@@H]2C1
2. O=C(/C=C/c1ccc(OC(F)(F)F)cc1)N1CC[C@@H]2CN(C(=O)NCc3cnn[nH]3)C[C@@H]2CC1
3. O=C(OCc1cc(Cl)cc(Cl)c1)N1C[C@H]2CCN(C(=O)c3ccc4[nH]nnc4c3)C[C@@H]2C1 (relative stereo) [Example 12A]

1: 8.30; 2: 6.15; 3: 7.96

Attribution: patent US10669268B2
